Biological target: hSP-D (Homo sapiens)
Construct: The full-length recombinant collectins pSP-D and hSP-D were constructed as published
Sequence (P35247 21-375): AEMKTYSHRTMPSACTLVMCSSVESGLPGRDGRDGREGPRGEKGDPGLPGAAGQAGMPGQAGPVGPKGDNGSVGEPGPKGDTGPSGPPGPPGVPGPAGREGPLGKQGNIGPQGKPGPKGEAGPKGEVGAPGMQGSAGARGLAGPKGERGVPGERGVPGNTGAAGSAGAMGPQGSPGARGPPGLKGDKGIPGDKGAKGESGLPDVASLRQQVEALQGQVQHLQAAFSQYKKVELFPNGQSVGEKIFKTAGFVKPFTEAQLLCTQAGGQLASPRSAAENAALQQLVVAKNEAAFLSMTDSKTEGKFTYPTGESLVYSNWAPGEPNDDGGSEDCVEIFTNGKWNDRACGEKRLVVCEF
Test: Saccharide competition of SP-D binding to BSA-mannan coated plates
outcome-measure: pIC50
On this scale, pIC50 is minus log10 of a concentration expressed in M (mol/L).

Worked examples, 3 molecules total:
[
  {
    "molecule": "O=C(CO)[C@@H](O)[C@H](O)[C@H](O)CO",
    "system-name": "hSP-D (Homo sapiens)",
    "pIC50": 2.51
  },
  {
    "molecule": "OC[C@H]1OC(O)[C@H](O)[C@@H](O)[C@@H]1O (stereo partly shown)",
    "system-name": "hSP-D (Homo sapiens)",
    "pIC50": 2.34
  },
  {
    "molecule": "CC(=O)N[C@@H]1C(O)O[C@H](CO)[C@@H](O)[C@@H]1O (stereo partly shown)",
    "system-name": "hSP-D (Homo sapiens)",
    "pIC50": 2.66
  }
]

// query Fill blank: measured pIC50 of the molecule O=C[C@H](O)[C@@H](O)[C@@H](O)[C@H](O)CO is ____.
// result 1.87
